assaySummary: Apparent volume of distribution in Sprague-Dawley rat at 2.1 mg/kg, iv
Format: ADME, organism-based
Parameters: dose 2.1 mg/kg, route intravenous
details: in vivo, read-out: Vz
valueType: Vd

>>> datavalue("O=C(c1ccc(F)nc1)N1CCN2C(=O)c3cc[n+]([O-])cc3C12c1ccc(Cl)cc1 (racemic)")
"1.2 L/kg"

----------
assaySummary: Plasma clearance in Sprague-Dawley rat at 1.1 mg/kg, iv
Format: ADME, organism-based
Parameters: dose 1.1 mg/kg, route intravenous
valueType: clearance (mL/min/kg)

>>> datavalue("O=C(c1ccco1)N1CCN2C(=O)c3ccncc3C12c1ccc(Cl)cc1 (racemic)")
79

----------
assaySummary: Cmax in Sprague-Dawley rat at 20 mg/kg, po
Assay type: ADME, organism-based
Parameters: dose 20 mg/kg, route oral
details: in vivo
valueType: Cmax (nM)

>>> datavalue("O=C(c1ccco1)N1CCN2C(=O)c3ccncc3C12c1ccc(Cl)cc1 (racemic)")
440

----------
assaySummary: Elimination half life in Sprague-Dawley rat at 19 mg/kg, po
Assay type: ADME, organism-based
Set-up: dose 19 mg/kg, route oral
details: in vivo, read-out: beta t1/2 (converted)
half-life by entry:
valueType: half-life (h)

>>> datavalue("Cn1cc(C(=O)N2CCN3C(=O)c4ccncc4C32c2ccc(Cl)cc2)c(C(F)(F)F)n1 (racemic)")
7.1
>>> datavalue("O=C(c1ccoc1)N1CCN2C(=O)c3ccncc3[C@]12c1ccc(Cl)cc1")
3.1
>>> datavalue("O=C(c1ccc(F)nc1)N1CCN2C(=O)c3ccncc3[C@]12c1ccc(Cl)cc1")
9.3
>>> datavalue("O=C(c1cccnc1)N1CCN2C(=O)c3ccncc3[C@]12c1ccc(Cl)cc1")
4.5

----------
assaySummary: Elimination half life in Sprague-Dawley rat at 0.9 mg/kg, iv
Assay type: ADME, organism-based
Set-up: dose 0.9 mg/kg, route intravenous
details: in vivo, read-out: beta t1/2 (converted)
valueType: half-life (h)

>>> datavalue("Cn1cc(C(=O)N2CCN3C(=O)c4ccncc4C32c2ccc(Cl)cc2)c(C(F)(F)F)n1 (racemic)")
5.6

----------
assaySummary: Oral bioavailability in Sprague-Dawley rat at 21 mg/kg
Format: ADME, organism-based
details: in vivo
valueType: bioavailability (%)

>>> datavalue("O=C(c1ccc(F)nc1)N1CCN2C(=O)c3cc[n+]([O-])cc3C12c1ccc(Cl)cc1 (racemic)")
85

----------
assaySummary: Elimination half life in Sprague-Dawley rat at 5.1 mg/kg, iv
Assay type: ADME, organism-based
Design: dose 5.1 mg/kg, route intravenous
details: in vivo, read-out: beta t1/2 (converted)
valueType: half-life (h)

>>> datavalue("O=C(c1ccc(F)nc1)N1CCN2C(=O)c3ccncc3[C@]12c1ccc(Cl)cc1")
11

----------
assaySummary: Plasma clearance in Sprague-Dawley rat at 5.1 mg/kg, iv
Format: ADME, organism-based
Parameters: dose 5.1 mg/kg, route intravenous
valueType: clearance (mL/min/kg)

>>> datavalue("O=C(c1ccc(F)nc1)N1CCN2C(=O)c3ccncc3[C@]12c1ccc(Cl)cc1")
4.3

----------
assaySummary: Half life in Sprague-Dawley rat at 21 mg/kg, po
Format: ADME, organism-based
Set-up: dose 21 mg/kg, route oral
details: in vivo
valueType: half-life (h)

>>> datavalue("O=C(c1ccc(F)nc1)N1CCN2C(=O)c3cc[n+]([O-])cc3C12c1ccc(Cl)cc1 (racemic)")
20
